Molecular target: hCdc5 DNA-binding domain (aa 1-500) (Homo sapiens, UniProt Q99459 SEQ:1-500)
Sequence (Q99459 1-500): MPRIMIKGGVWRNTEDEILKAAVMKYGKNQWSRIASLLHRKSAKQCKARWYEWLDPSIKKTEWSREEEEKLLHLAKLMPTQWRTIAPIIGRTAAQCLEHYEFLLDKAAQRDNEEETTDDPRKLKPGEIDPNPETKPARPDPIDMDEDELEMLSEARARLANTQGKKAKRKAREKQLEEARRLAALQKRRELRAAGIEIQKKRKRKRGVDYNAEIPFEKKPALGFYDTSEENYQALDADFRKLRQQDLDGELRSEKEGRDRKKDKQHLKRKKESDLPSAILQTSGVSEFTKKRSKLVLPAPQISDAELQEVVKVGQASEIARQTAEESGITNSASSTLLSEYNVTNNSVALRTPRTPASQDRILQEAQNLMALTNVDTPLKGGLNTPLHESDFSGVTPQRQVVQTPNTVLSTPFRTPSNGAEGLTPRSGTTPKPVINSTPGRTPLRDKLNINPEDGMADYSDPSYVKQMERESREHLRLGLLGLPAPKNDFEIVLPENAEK
Assay: EMSA; amino terminus of hCdc5
Conditions: tags: His6 fusion (pET29c(+), E. coli BL21(DE3), Ni-NTA); chain copies: forms homodimers by glutaraldehyde cross-linking in vitro

>  <binder>
genomic clone 12 site 1 (dsDNA) DNA 1: CGCTCGAGGGATCCGAATTCAAAGGGGAACACTTTTCTAGAAAGCTTGTCGACGC DNA 2: GCGTCGACAAGCTTTCTAGAAAAGTGTTCCCCTTTGAATTCGGATCCCTCGAGCG

>  <binding result>
binds

$$$$
>  <binder>
genomic clone 8 site (dsDNA) DNA 1: CGCTCGAGGGATCCGAATTCAATGAACGAATCAAATTTCTAGAAAGCTTGTCGACGC DNA 2: GCGTCGACAAGCTTTCTAGAAATTTGATTCGTTCATTGAATTCGGATCCCTCGAGCG

>  <binding result>
no binding

$$$$
>  <binder>
genomic clone 25 site (dsDNA) DNA 1: CGCTCGAGGGATCCGAATTCAATTCCCCGGATCATTGCAAACAATTTCTAGAAAGCTTGTCGACGC DNA 2: GCGTCGACAAGCTTTCTAGAAATTGTTTGCAATGATCCGGGGAATTGAATTCGGATCCCTCGAGCG

>  <binding result>
no binding

$$$$
>  <binder>
genomic clone 12 site 2 (dsDNA) DNA 1: CGCTCGAGGGATCCGAATTCCCCCCCTTTAAACCAGCGTGGAGGGGGGTCTAGAAAGCTTGTCGACGC DNA 2: GCGTCGACAAGCTTTCTAGACCCCCCTCCACGCTGGTTTAAAGGGGGGGAATTCGGATCCCTCGAGCG

>  <binding result>
no binding

$$$$
